Task for the reader: assign each of the following binders its reported MFI at 33.3 nM.
Molecular target: T1, human CTLA-4 (human, UniProt P16410 36-223)
T1 construct: also called huCTLA4
T1 sequence (P16410 36-223): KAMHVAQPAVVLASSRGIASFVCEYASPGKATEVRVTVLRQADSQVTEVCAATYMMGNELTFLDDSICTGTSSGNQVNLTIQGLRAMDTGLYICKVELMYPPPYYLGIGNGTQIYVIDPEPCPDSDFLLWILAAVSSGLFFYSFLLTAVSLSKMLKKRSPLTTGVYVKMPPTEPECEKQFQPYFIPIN
Experiment: flow cytometry on CHO cells stably expressing CTLA4
Please state the value followed by its unit.

**Query** Which value of MFI at 33.3 nM has been reported for CD80 E35D/M47V/N48K/V68M/K89N IgV-Fc, EAAAK linker (Fc fusion, not shown: a dimerising Fc or GST) VIHVTKEVKEVATLSCGHNVSVEELAQTRIYWQKDKKMVLTMMSGDVKIWPEYKNRTIFDITNNLSIMILALRPSDEGTYECVVLKYENDAFKREHLAEVTLSVKADEAAAK in the records?
**Result** 27500 MFI

**Query** Follow-up entry: CD80 E35D/D46V/M47L/V68M/L85Q/E88D IgV-Fc, (EAAAK)3 linker (Fc fusion, not shown: a dimerising Fc or GST) VIHVTKEVKEVATLSCGHNVSVEELAQTRIYWQKDKKMVLTMMSGVLNIWPEYKNRTIFDITNNLSIMILALRPSDEGTYECVVQKYDKDAFKREHLAEVTLSVKADEAAAKEAAAKEAAAK
**Result** 32000 MFI

**Query** Same question, wild-type CD80 IgV-Fc (inert) with GSG4S linker, Example 16 (Fc fusion, also called CD80 WT IgV-Fc) VIHVTKEVKEVATLSCGHNVSVEELAQTRIYWQKEKKMVLTMMSGDMNIWPEYKNRTIFDITNNLSIVILALRPSDEGTYECVVLKYEKDAFKREHLAEVTLSVKADGSGGGGSEPKSSDKTHTCPPCPAPEAEGAPSVFLFPPKPKDTLMISRTPEVTCVVVDVSHEDPEVKFNWYVDGVEVHNAKTKPREEQYNSTYRVVSVLTVLHQDWLNGKEYKCKVSNKALPAPIEKTISKAKGQPREPQVYTLPPSREEMTKNQVSLTCLVKGFYPSDIAVEWESNGQPENNYKTTPPVLDSDGSFFLYSKLTVDKSRWQQGNVFSCSVMHEALHNHYTQKSLSLSPG this time
**Result** 1200 MFI
